Target: GSPT1 (Homo sapiens, UniProt P15170)
Construct: Whole cell extract was prepared with RIPA buffer according to manufacturer's protocol; endogenous in cells; host or cells: Jurkat cells
Sequence (P15170 whole entry): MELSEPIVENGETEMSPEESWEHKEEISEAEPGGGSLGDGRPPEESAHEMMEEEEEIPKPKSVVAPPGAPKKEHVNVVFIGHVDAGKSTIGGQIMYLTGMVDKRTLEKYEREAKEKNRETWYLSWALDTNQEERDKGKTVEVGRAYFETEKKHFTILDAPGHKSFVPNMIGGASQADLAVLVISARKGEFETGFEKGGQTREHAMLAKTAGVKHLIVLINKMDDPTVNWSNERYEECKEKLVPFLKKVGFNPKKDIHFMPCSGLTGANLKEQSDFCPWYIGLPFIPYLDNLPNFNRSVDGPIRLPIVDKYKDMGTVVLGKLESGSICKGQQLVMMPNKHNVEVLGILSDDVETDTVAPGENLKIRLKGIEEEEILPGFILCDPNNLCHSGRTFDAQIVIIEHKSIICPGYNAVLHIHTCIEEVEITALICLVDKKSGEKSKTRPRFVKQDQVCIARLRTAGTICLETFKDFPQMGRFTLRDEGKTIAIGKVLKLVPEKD
Experiment: Western blot analysis of GSPT1 protein levels in Jurkat cells
Type: cell-based
Conditions: 100 nM compound, DMSO = 100.00
Assay Readout: GSPT1 protein level (% of DMSO control) at 0.1 µM (%)
Give just the number in %; leave the unit off.

Query O=C1CCC[C@H](N2Cc3cc(CNC(=O)C(F)(F)c4ccc(F)cc4)ccc3C2=O)C(=O)N1 [Compound 25] yields GSPT1 protein level (% of DMSO control) at 0.1 µM of 98.1

Query CCCNC(=O)NCc1ccc2c(c1)CN([C@H]1CCCC(=O)NC1=O)C2=O [Compound 4] yields GSPT1 protein level (% of DMSO control) at 0.1 µM of 214

Query O=C(Cc1ccc(C(F)(F)F)c(Cl)c1)NCc1ccc2c(c1)CN([C@H]1CCCC(=O)NC1=O)C2=O [Compound 10] yields GSPT1 protein level (% of DMSO control) at 0.1 µM of 83.3

###

Test system: H1048 cells
Assay: Cell viability assay (CellTiter-Glo), H1048 cells
Assay type: cell-based
Settings: Homo sapiens, NCI-H1048, 72 h; H1048, 1 μM, 3 days
Hi there, I'd appreciate the recorded viability at 1 µM for every entry that follows.
Give just the number in %; leave the unit off.

Query `Cc1ccc(CNC(=O)NCc2cccc3c2CN([C@H]2CCCC(=O)NC2=O)C3=O)cc1Cl` yields viability at 1 µM of 98.5

Query `Cc1ccc(CC(=O)NCc2ccc3c(c2)CN([C@H]2CCCC(=O)NC2=O)C3=O)cc1CN1CCOCC1` yields viability at 1 µM of 70.8

Query `Cc1ccc(CC(=O)NCc2ccc3c(c2)CN([C@H]2CCCC(=O)NC2=O)C3=O)cc1` yields viability at 1 µM of 57.1

Query `O=C(Cc1ccc(C(F)(F)F)c(Cl)c1)NCc1ccc2c(c1)CN([C@H]1CCCC(=O)NC1=O)C2=O` yields viability at 1 µM of 82.1

Query `Cc1ccc(NC(=O)NCc2ccc3c(c2C)CN([C@H]2CCCC(=O)NC2=O)C3=O)cc1Cl` yields viability at 1 µM of 7.66

Query `O=C(Cc1ccc(Cl)c(CN2CCOCC2)c1)NCc1ccc2c(c1)CN([C@H]1CCCC(=O)NC1=O)C2=O` yields viability at 1 µM of 93.3

Query `O=C1CCC[C@H](N2Cc3cc(CNC(=O)C(F)(F)c4ccc(F)cc4)ccc3C2=O)C(=O)N1` yields viability at 1 µM of 88.1

Query `COc1ccc(NC(=O)NCc2ccc3c(c2)CN([C@H]2CCCC(=O)NC2=O)C3=O)cc1Cl` yields viability at 1 µM of 17.4

Query `Cc1ccc(NC(=S)NCc2ccc3c(c2)CN([C@H]2CCCC(=O)NC2=O)C3=O)cc1Cl` yields viability at 1 µM of 46.4

Query `O=C(Cc1cccc(CN2CCOCC2)c1)NCc1ccc2c(c1)CN([C@H]1CCCC(=O)NC1=O)C2=O` yields viability at 1 µM of 101

Query `Cc1ccc(CNC(=O)NCc2ccc3c(c2)CN([C@H]2CCCC(=O)NC2=O)C3=O)cc1Cl` yields viability at 1 µM of 14.2

Query `CCCNC(=O)NCc1ccc2c(c1)CN([C@H]1CCCC(=O)NC1=O)C2=O` yields viability at 1 µM of 103

Query O=C1CCCC(N2Cc3cc(CNC(=O)Nc4cccc(Cl)c4)ccc3C2=O)C(=O)N1 (stereo not shown) yields viability at 1 µM of 47.1

###

Hi there, I'd appreciate the recorded fold induction at 0.1 µM for every entry that follows.
System: IL-2
Assay: IL-2 in PBMCs on anti-human CD3 (OKT3) coated plates, Mesoscale analysis
Assay type: cell-based
Settings: PBMC, 24 h, 0.1 μM, relative to DMSO control, read-out: Fold Change IL-2
The answer should be a number; do not append a unit.

Query Cc1ccc(NC(=O)NCc2ccc3c(c2)CN(C2CCCC(=O)NC2=O)C3=O)cc1 (stereo not shown) yields fold induction at 0.1 µM of 1.4

Query O=C1CCCC(N2Cc3cc(CNC(=O)Nc4cccc(Cl)c4)ccc3C2=O)C(=O)N1 (stereo not shown) yields fold induction at 0.1 µM of 1.4

Query `O=C(Cc1ccc(Cl)c(CN2CCOCC2)c1)NCc1ccc2c(c1)CN([C@H]1CCCC(=O)NC1=O)C2=O` yields fold induction at 0.1 µM of 1

Query `O=C1CCC[C@H](N2Cc3cc(CNC(=O)C(F)(F)c4ccc(F)cc4)ccc3C2=O)C(=O)N1` yields fold induction at 0.1 µM of 1.4

Query `Cc1ccc(NC(=O)NCc2ccc3c(c2)CN([C@H]2CCCC(=O)NC2=O)C3=O)cc1Cl` yields fold induction at 0.1 µM of 1.4

Query `Cc1ccc(NC(=O)NCc2cccc3c2CN([C@H]2CCCC(=O)NC2=O)C3=O)cc1Cl` yields fold induction at 0.1 µM of 1.3

Query `Cc1ccc(CNC(=O)NCc2cccc3c2CN([C@H]2CCCC(=O)NC2=O)C3=O)cc1Cl` yields fold induction at 0.1 µM of 1.1

###

System: H1048 cells
Assay: Cell viability assay (CellTiter-Glo), H1048 cells
Format: cell-based
Conditions: Homo sapiens, NCI-H1048, 72 h; H1048, 10 μM, 3 days
Assay Readout: viability at 10 µM (%)
Give just the number in %; leave the unit off.

Query Cc1ccc(CC(=O)NCc2ccc3c(c2)CN([C@H]2CCCC(=O)NC2=O)C3=O)cc1Cl [Compound 7] yields viability at 10 µM of 7.25

Query Cc1ccc(NC(=O)NCc2cc3c(cc2F)C(=O)N([C@H]2CCCC(=O)NC2=O)C3)cc1Cl [Compound 22] yields viability at 10 µM of 4.04

Query Cc1ccc(CC(=O)NCc2ccc3c(c2)CN([C@H]2CCCC(=O)NC2=O)C3=O)cc1CN1CCOCC1 [Compound 11] yields viability at 10 µM of 11.6

Query Cc1ccc(CC(=O)NCc2ccc3c(c2)CN([C@H]2CCCC(=O)NC2=O)C3=O)cc1 [Compound 9] yields viability at 10 µM of 7.27

Query Cc1ccc(NC(=O)NCCc2ccc3c(c2)CN([C@H]2CCCC(=O)NC2=O)C3=O)cc1Cl [Compound 24] yields viability at 10 µM of 2.81

Query Cc1ccc(CNC(=O)NCc2cccc3c2CN([C@H]2CCCC(=O)NC2=O)C3=O)cc1Cl [Compound 20] yields viability at 10 µM of 96.2

Query Cc1ccc(N(C)C(=O)NCc2ccc3c(c2)CN([C@H]2CCCC(=O)NC2=O)C3=O)cc1Cl [Compound 21] yields viability at 10 µM of 45.3

All figures here come from patent US10857155B2.
